This collection of values is drawn from patent US20030068675.

Target: T1, ZFP SBS#540 (synthetic)
T1 chain: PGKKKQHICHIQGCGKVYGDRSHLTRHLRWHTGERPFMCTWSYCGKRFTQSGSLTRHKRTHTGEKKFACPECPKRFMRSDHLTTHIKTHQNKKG
Test: EMSA
Details: tags: MBP fusion
pKd: −log10 of the molar value.
experimental-readout: pKd

- binder: "TGGGCAGGCC (dsDNA) DNA 1: TGGGCAGGCC DNA 2: GGCCTGCCCA"
  experimental-readout: "pKd"
  quantitative-readout: 7.26
